- TEST_SYSTEM: Cholinesterase (Homo sapiens, UniProt P06276)
- Sequence (P06276 whole entry): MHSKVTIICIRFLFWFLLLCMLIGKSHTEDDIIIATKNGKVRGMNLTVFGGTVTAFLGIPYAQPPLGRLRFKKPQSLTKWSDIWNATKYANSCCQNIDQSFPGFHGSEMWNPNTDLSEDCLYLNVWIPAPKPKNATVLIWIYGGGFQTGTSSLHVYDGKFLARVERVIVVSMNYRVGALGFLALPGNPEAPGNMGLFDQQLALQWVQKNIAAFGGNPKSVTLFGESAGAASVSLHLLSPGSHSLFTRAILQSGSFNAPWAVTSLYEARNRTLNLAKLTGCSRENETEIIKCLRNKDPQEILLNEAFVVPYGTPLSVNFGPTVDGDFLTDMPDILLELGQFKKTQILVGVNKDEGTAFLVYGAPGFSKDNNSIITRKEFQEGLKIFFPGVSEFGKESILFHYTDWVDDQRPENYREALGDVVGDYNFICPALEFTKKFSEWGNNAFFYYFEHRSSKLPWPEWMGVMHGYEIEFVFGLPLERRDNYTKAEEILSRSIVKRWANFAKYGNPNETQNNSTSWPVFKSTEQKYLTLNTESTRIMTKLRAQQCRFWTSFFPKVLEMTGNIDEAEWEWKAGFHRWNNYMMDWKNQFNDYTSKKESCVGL
Field: label. Allowed values: condition met (IC50 < 4 µM) or condition not met (IC50 >= 4 µM).

{"SMILES_REPR": "Cc1ccc(Oc2ccc3nc4c(c(N)c3c2)CCCC4)cc1", "CAT": "condition met"}
{"SMILES_REPR": "Cc1cccc(Oc2ccc3nc4c(c(N)c3c2)CCCCC4)c1", "CAT": "condition met"}
{"SMILES_REPR": "Cc1cc(C)cc(Oc2ccc3nc4c(c(N)c3c2)CCCC4)c1", "CAT": "condition met"}
{"SMILES_REPR": "Cc1cc(C)cc(Oc2ccc3nc4c(c(N)c3c2)CCC4)c1", "CAT": "condition not met"}
{"SMILES_REPR": "Cc1ccc(Oc2ccc3nc4c(c(N)c3c2)CCC4)cc1", "CAT": "condition not met"}
{"SMILES_REPR": "CC(C)(C)c1ccc(Oc2ccc3nc4c(c(N)c3c2)CCCC4)cc1", "CAT": "condition not met"}
{"SMILES_REPR": "COc1cccc(Oc2ccc3nc4c(c(N)c3c2)CCCCC4)c1", "CAT": "condition met"}
{"SMILES_REPR": "COc1ccccc1Oc1ccc2nc3c(c(N)c2c1)CCCC3.Cl", "CAT": "condition met"}
{"SMILES_REPR": "COc1ccccc1Oc1ccc2nc3c(c(N)c2c1)CCC3.Cl", "CAT": "condition not met"}
{"SMILES_REPR": "Cc1cc(C)cc(Oc2ccc3nc4c(c(N)c3c2)CCCCC4)c1", "CAT": "condition not met"}
{"SMILES_REPR": "Cc1ccccc1Oc1ccc2nc3c(c(N)c2c1)CCCC3", "CAT": "condition not met"}
